test system: Yap1 mRNA; assay: Dose-dependent inhibition of human Yap1 in A-431 cells (Example 8, 10,000 cells per well, RTS4814); assay type: cell-based; conditions: A-431 cells, free uptake, approximately 48 hours, RTS4814; linear regression on log/linear plot
Strand notation (5' to 3'): a small letter for the sugar, then the base; units joined by * are phosphorothioate-linked, units joined directly phosphodiester-linked; [ ] holds rarer units or linkages, { } end groups; capitals alone tell only the bases. k = constrained ethyl (cEt); [5mC] = 5-methylcytosine; d = 2'-deoxy (DNA)
measurement.name: IC50

Worked cases, IC50 given:
1. 1075808 (kG*k[5mC]*kA*dA*dT*dA*dG*dA*dG*dT*dA*dA*d[5mC]*k[5mC]*kA*kG; antisense) [compound 1075808] | < 20 nM
2. 1074411 (kT*kG*kT*dG*dA*dA*dA*dG*dA*dG*dG*dT*d[5mC]*kA*kG*k[5mC]; antisense) [compound 1074411] | < 20 nM

Tell me its IC50 given 1074606 (DNA kG*kG*kT*dA*dT*dA*dA*dT*d[5mC]*dA*dT*dG*dA*kT*kT*kA) [compound 1074606] as the entry. < 20 nM

###

assay: Tolerability in Balb/c mice, body and organ weights (Example 10); format: in vivo; settings: 50 mg/kg subcutaneously twice a week for four weeks, end of study
Strand notation (5' to 3'): a small letter for the sugar, then the base; units joined by * are phosphorothioate-linked, units joined directly phosphodiester-linked; [ ] holds rarer units or linkages, { } end groups; capitals alone tell only the bases. k = constrained ethyl (cEt); [5mC] = 5-methylcytosine; d = 2'-deoxy (DNA)
measurement.name: body weight (g)
All answers are understood in g, so give the number only.

1) 715582 (kG*kT*k[5mC]*dA*dA*dG*d[5mC]*d[5mC]*dT*dG*dT*d[5mC]*dT*kG*kG*kA; antisense) [compound 715582] | 22
2) 715557 (kG*kG*kA*dA*dG*dT*dT*dA*dT*dT*d[5mC]*dA*dG*k[5mC]*kA*kG; antisense) [compound 715557] | 21

# context switch: different substance, same body weight
Tell me its body weight given 715609 (kT*kG*kT*dG*dT*dA*dG*dG*d[5mC]*dT*dG*dA*d[5mC]*kT*kT*kA; antisense) [compound 715609] as the entry. 21

###

Reported Yap1 mRNA, % UTC values are given for each entry in this list.
test system: Yap1 mRNA; assay: Dose-dependent inhibition of human Yap1 in A-431 cells (Example 8, 10,000 cells per well, RTS4814); type: cell-based; details: 125.0 nM; A-431 cells, 10,000 cells per well, free uptake, approximately 48 hours, RTS4814
Strand notation (5' to 3'): a small letter for the sugar, then the base; units joined by * are phosphorothioate-linked, units joined directly phosphodiester-linked; [ ] holds rarer units or linkages, { } end groups; capitals alone tell only the bases. k = constrained ethyl (cEt); [5mC] = 5-methylcytosine; d = 2'-deoxy (DNA)
All answers are understood in % UTC, so give the number only.

Worked cases, Yap1 mRNA, % UTC given:
1. 1074274 (antisense kG*kT*kT*d[5mC]*dT*dT*dA*dT*dG*dG*dT*dT*dT*kA*kT*kA) [compound 1074274] | 14
2. 1075712 (kG*kA*k[5mC]*dG*d[5mC]*dG*dA*dA*dA*dT*dA*d[5mC]*dT*kT*kA*k[5mC]; antisense) [compound 1075712] | 38
3. 1074447 (kA*kA*kT*dG*dA*dT*dA*dG*d[5mC]*dA*d[5mC]*dT*dA*kG*kG*kA; antisense) [compound 1074447] | 20
4. 1075939 (antisense k[5mC]*kT*kT*dG*dA*dA*dT*dA*dT*dA*dT*dG*dG*kG*kT*kT) [compound 1075939] | 19
5. 1075115 (kG*kT*kA*dT*dA*dG*d[5mC]*d[5mC]*dT*dT*dA*dT*dT*k[5mC]*kT*kT; antisense) [compound 1075115] | 41

# context switch: different substance, same Yap1 mRNA, % UTC
Tell me its Yap1 mRNA, % UTC given 1074318 (antisense kG*kG*kA*dG*dA*dA*dT*dT*dT*dG*d[5mC]*dT*dG*kT*kG*k[5mC]) [compound 1074318] as the entry. 12

###

Reported pIC50 values are given for each entry in this list.
tested on: Yap1 mRNA; assay: Dose-dependent inhibition of human Yap1 in A-431 cells (Example 8, 10,000 cells per well, RTS4814); format: cell-based; conditions: A-431 cells, free uptake, approximately 48 hours, RTS4814; linear regression on log/linear plot
pIC50: −log10 of the molar value. Strand notation (5' to 3'): a small letter for the sugar, then the base; units joined by * are phosphorothioate-linked, units joined directly phosphodiester-linked; [ ] holds rarer units or linkages, { } end groups; capitals alone tell only the bases. k = constrained ethyl (cEt); [5mC] = 5-methylcytosine; d = 2'-deoxy (DNA)

1) 1075088 (kA*kT*kT*dT*dA*dT*dA*dG*dT*d[5mC]*dA*dG*dG*kT*kT*k[5mC]; antisense) [compound 1075088] | > 7.70

Tell me its pIC50 given 1076525 (kG*kA*kA*dT*dT*dT*dA*dT*dA*dT*d[5mC]*dA*dG*kG*kT*k[5mC]; antisense) [compound 1076525] as the entry. > 7.70

Tell me its pIC50 given 1076416 (kA*k[5mC]*k[5mC]*dG*dA*dA*dA*dT*dG*dA*dT*dA*d[5mC]*kT*kG*kA; antisense) [compound 1076416] as the entry. 7.00

Tell me its pIC50 given 1075939 (antisense k[5mC]*kT*kT*dG*dA*dA*dT*dA*dT*dA*dT*dG*dG*kG*kT*kT) [compound 1075939] as the entry. > 7.70

Tell me its pIC50 given 1076369 (antisense kT*kA*kT*dT*d[5mC]*dG*dG*dT*dA*dT*dT*dT*dT*k[5mC]*kT*kA) [compound 1076369] as the entry. > 7.70

Tell me its pIC50 given 1076386 (antisense kA*kG*kT*dT*dA*dT*dA*dA*d[5mC]*dA*dG*dT*dG*kT*kA*kA) [compound 1076386] as the entry. 7.40

###

tested on: Yap1 mRNA; assay: Dose-dependent inhibition of human Yap1 in A-431 cells (Example 7, 10,000 cells per well, RTS36584); type: cell-based; settings: 4000.00 nM, A-431 cells, 10,000 cells per well, free uptake, approximately 48 hours
Strand notation (5' to 3'): a small letter for the sugar, then the base; units joined by * are phosphorothioate-linked, units joined directly phosphodiester-linked; [ ] holds rarer units or linkages, { } end groups; capitals alone tell only the bases. k = constrained ethyl (cEt); [5mC] = 5-methylcytosine; d = 2'-deoxy (DNA)
Given measured Yap1 mRNA, % UTC, output MET if it is greater than or equal to 10 % UTC and NOT MET if not.

1. 958585 (k[5mC]*kT*k[5mC]*dT*dA*dT*d[5mC]*dA*dA*dG*dG*dT*d[5mC]*k[5mC]*k[5mC]*k[5mC]; antisense) [compound 958585] | MET

Would you say 958575 (kG*kG*k[5mC]*dT*dA*d[5mC]*dT*dG*dG*d[5mC]*dA*dA*dA*kT*kT*kA; antisense) [compound 958575] shows Yap1 mRNA, % UTC at minimum 10 % UTC? MET

Would you say 958805 (k[5mC]*kA*kA*dG*dA*dT*dA*dA*dT*d[5mC]*dA*dT*d[5mC]*k[5mC]*kT*k[5mC]; antisense) [compound 958805] shows Yap1 mRNA, % UTC at minimum 10 % UTC? MET

Would you say 958535 (kG*kG*kG*dT*d[5mC]*dA*dA*dT*dT*dT*dT*d[5mC]*dA*kG*k[5mC]*kA; antisense) [compound 958535] shows Yap1 mRNA, % UTC at minimum 10 % UTC? MET

Would you say 958600 (kG*kT*kA*dG*dA*dT*d[5mC]*dT*dA*dA*dG*dA*dA*kG*k[5mC]*k[5mC]; antisense) [compound 958600] shows Yap1 mRNA, % UTC at minimum 10 % UTC? MET

Would you say 958485 (kA*kG*kA*dG*dG*dT*d[5mC]*dA*dG*d[5mC]*dA*dA*dT*kA*k[5mC]*kA; antisense) [compound 958485] shows Yap1 mRNA, % UTC at minimum 10 % UTC? NOT MET

###

assay: Cynomolgus monkey tolerability, hematology (Example 34); type: in vivo, cynomolgus monkeys; conditions: cynomolgus monkey, in vivo, sc, 35 mg/kg
Reported HCT values are given for each entry in this list.
All answers are understood in %, so give the number only.

1) 1198728 (TATTAGAGTATGTGGC; modified gapmer, further chemistry not given here) [compound 1198728] | 47

Tell me its HCT given 1198623 (CTAAGTAAGGTTTCCC; modified gapmer, further chemistry not given here) [compound 1198623] as the entry. 46

Tell me its HCT given 1198440 (AAGTGTATGTCAGAAG; cEt, 2'-MOE, 5-methylcytosine, phosphorothioate modifications, further chemistry not given here) [compound 1198440] as the entry. 47

Tell me its HCT given 1198872 (TGTATGTCAGAAGAGT; chemically modified gapmer, further chemistry not given here) [compound 1198872] as the entry. 44

Tell me its HCT given 1198831 (CACTTTTACATTAGGA; chemically modified gapmer, further chemistry not given here) [compound 1198831] as the entry. 43

Tell me its HCT given 1198605 (GTAATATTGCAATCTG; modified gapmer, further chemistry not given here) [compound 1198605] as the entry. 46

Tell me its HCT given 1197270 (TTAAAGTGTATGTCAG; cEt gapmer with 2'-OMe nucleoside, phosphorothioate, further chemistry not given here) [compound 1197270] as the entry. 44

Tell me its HCT given 1198439 (AGTGTATGTCAGAAGA; sugar, 5-methylcytosine, phosphorothioate modifications, further chemistry not given here) [compound 1198439] as the entry. 48

Tell me its HCT given 958499 (ATTAGAGTATGTGGCA; 3-10-3 cEt gapmer, further chemistry not given here) [compound 958499] as the entry. 43

Tell me its HCT given 1076453 (GTAATATTGCAATCTG; 3-10-3 cEt gapmer, further chemistry not given here) [compound 1076453] as the entry. 43
